Examples of molecules with documented melting point follow.

Query :: Give the measured melting point for N#Cc1c(-c2ccc(F)cc2Cl)cc(-c2c[nH]c3ccccc23)n2cc(CN3CCOCC3)nc12
Result :: 201.3 to 203.5 °C

Query :: Give the measured melting point for Cc1ccccc1-c1cc(-c2c[nH]c3ccccc23)n2ccnc2c1C#N
Result :: 334.3 to 335.1 °C

Query :: Give the measured melting point for CCNCc1cn2c(-c3c[nH]c4ccccc34)cc(-c3ccc(F)cc3Cl)c(C#N)c2n1
Result :: 170.7 to 172.6 °C

Query :: Give the measured melting point for CC1CCN(Cc2cn3c(-c4c[nH]c5ccccc45)cc(-c4ccc(F)cc4Cl)c(C#N)c3n2)CC1
Result :: 185.7 to 187.9 °C

Query :: Give the measured melting point for COc1cccc(-c2cc(-c3c[nH]c4ccccc34)n3ccnc3c2C#N)c1
Result :: 316.5 to 318.7 °C

Query :: Give the measured melting point for N#Cc1c(-c2ccccc2)cc(-c2c[nH]c3ccccc23)n2ccnc12
Result :: 338.3 to 339.7 °C

Query :: Give the measured melting point for CCN(CC)Cc1cn2c(-c3c[nH]c4ccccc34)cc(-c3ccc(F)cc3Cl)c(C#N)c2n1
Result :: 181.2 to 184.5 °C

Query :: Give the measured melting point for N#Cc1c(-c2ccc(F)c(F)c2)cc(-c2c[nH]c3ccccc23)n2ccnc12
Result :: 341.6 to 343.8 °C

Query :: Give the measured melting point for CN(C)Cc1cn2c(-c3c[nH]c4ccccc34)cc(-c3ccc(F)cc3Cl)c(C#N)c2n1
Result :: 175.4 to 178.4 °C

---

Examples of compounds with documented melting point follow.

Solved cases below.
CNCc1cn2c(-c3c[nH]c4ccccc34)cc(-c3ccc(F)cc3Cl)c(C#N)c2n1    219.5 to 223.5 °C
N#Cc1c(-c2cc(Br)c(O)c(Br)c2)cc(-c2c[nH]c3ccccc23)n2ccnc12    290.5 to 294.2 °C
N#Cc1c(-c2ccccc2Cl)cc(-c2c[nH]c3ccccc23)n2ccnc12    296.7 to 300.1 °C
N#Cc1c(-c2ccc(F)cc2Cl)cc(-c2c[nH]c3ccccc23)n2ccnc12    307.9 to 317.3 °C
N#Cc1c(-c2ccc(O)c(O)c2O)cc(-c2c[nH]c3ccccc23)n2ccnc12    297.8 to 301.4 °C

Moving on to another compound below.
Query :: Give the measured melting point for N#Cc1c(-c2ccc(F)cc2Cl)cc(-c2c[nH]c3ccc(Br)cc23)n2ccnc12
Result :: 320.8 to 323.2 °C

---

Test system: SMMC-7721 (human liver cancer)
Assay: MTT antiproliferative assay, SMMC-7721
Assay type: cell-based
Details: 72 h, mean ± SD
measurement_type: IC50 (µM)

Solved cases below.
CCNCc1cn2c(-c3c[nH]c4ccccc34)cc(-c3ccc(F)cc3Cl)c(C#N)c2n1 [7b]    21.6
N#Cc1c(-c2ccc(F)cc2Cl)cc(-c2c[nH]c3ccc(Br)cc23)n2ccnc12 [5v]    56.3
COc1ccc(-c2cc(-c3c[nH]c4ccccc34)n3ccnc3c2C#N)cc1 [5d]    71.5
N#Cc1c(-c2cccc(Br)c2)cc(-c2c[nH]c3ccccc23)n2ccnc12 [5g]    79.2

(P) N#Cc1c(-c2ccccc2)cc(-c2c[nH]c3ccccc23)n2ccnc12 [5a]
(Q) COc1cc(OC)c(OC)c(-c2cc(-c3c[nH]c4ccccc34)n3ccnc3c2C#N)c1 [5q]
(R) Cc1ccccc1-c1cc(-c2c[nH]c3ccccc23)n2ccnc2c1C#N [5b]
(S) N#Cc1c(-c2ccc(F)cc2Cl)cc(-c2c[nH]c3ccccc23)n2cc(CN3CCCC3)nc12 [7g]
Query :: Please produce an ascending ranking of these compounds based on IC50. Arrange the labels as the request states and list them.
Result :: R, Q, S, P
(R: 0.82 µM, Q: 27.4 µM, S: 42.6 µM, P: 89.4 µM)

---

measurement_type: melting point

Solved cases below.
N#Cc1c(-c2ccc(F)cc2F)cc(-c2c[nH]c3ccccc23)n2ccnc12    340.3 to 346.2 °C
N#Cc1c(-c2ccc(F)cc2Cl)cc(-c2c[nH]c3ccccc23)n2cc(CN3CCCC3)nc12    195 to 199.7 °C
COc1cc(OC)c(OC)c(-c2cc(-c3c[nH]c4ccccc34)n3ccnc3c2C#N)c1    302.7 to 304.8 °C
N#Cc1c(-c2ccc(Br)cc2)cc(-c2c[nH]c3ccccc23)n2ccnc12    307.8 to 309.5 °C
CC(C)NCc1cn2c(-c3c[nH]c4ccccc34)cc(-c3ccc(F)cc3Cl)c(C#N)c2n1    222.2 to 225.3 °C

Moving on to another compound below.
Query :: Give the measured melting point for N#Cc1c(-c2ccc(Br)cc2)cc(-c2c[nH]c3ccc(Br)cc23)n2ccnc12
Result :: 317.2 to 321.8 °C
